FYI, the data here is from PubChem BioAssay (Tox21).

assayProcedure: Human pregnane X receptor (PXR) small molecule agonists, qHTS cell viability counter screen (AID 1346977); note: nearly all actives have a fitted effect of over 50% in size
conditionsUsed: PXR-Luc HepG2 viability, CellTiter-Fluor, 24 h; series mostly up to 92.4 µM
Source text: U.S. Tox21 Program National Center for Advancing Translational Sciences [NCATS] NIH Chemical Genomics Center [NCGC] U.S. Environmental Protection Agency [EPA] National Institutes of Environmental Health Sciences [NIEHS] National Toxicology Program [NTP] U.S. Food and Drug Administration [FDA] […]
Records with an inconclusive call do not appear. Calls of active or inactive are those of the source. Calls come from the whole dose curve; as a rule, active = well fitted cell-killing curve with a large enough effect in the repeat runs; inconclusive = weak or mixed curves, or effect the other way; inactive = flat fitted curve, though single readings scatter.
Possible outcomes: active, inactive

{"smilesString": "CCOC(=O)CN", "groupLabel": "inactive"}
{"smilesString": "C=CCCCCCCC=C", "groupLabel": "inactive"}
{"smilesString": "O=C(O)c1cccc(Cl)n1", "groupLabel": "inactive"}
{"smilesString": "Cc1cc(=O)[nH]c(=O)[nH]1", "groupLabel": "inactive"}
{"smilesString": "CC(C)=C1CC[C@@H](C)CC1=O", "groupLabel": "inactive"}
{"smilesString": "CCc1cccc(CC)c1NC(=O)C(=O)O", "groupLabel": "inactive"}
{"smilesString": "O=C[C@H](O)[C@H](O)[C@H](O)CO", "groupLabel": "inactive"}
{"smilesString": "Cc1c(-c2ccc(O)cc2)n(Cc2ccc(OCCN3CCCCCC3)cc2)c2ccc(O)cc12", "groupLabel": "active"}
{"smilesString": "C/C=C/C(=O)Oc1c(CCCCCC(C)C)cc([N+](=O)[O-])cc1[N+](=O)[O-]", "groupLabel": "active"}
{"smilesString": "CCC(=O)OCCc1ccccc1", "groupLabel": "inactive"}
{"smilesString": "O=C1NCCN1CCN1CCC(c2cn(-c3ccc(F)cc3)c3ccc(Cl)cc23)CC1", "groupLabel": "active"}
{"smilesString": "CCCCCCCC/C=C\\CCCCCCCC(=O)N(C)CC(=O)O", "groupLabel": "inactive"}
{"smilesString": "CCCCCCCCCCCCN(CCO)CCO", "groupLabel": "active"}
